Source of measurements: FireProtDB (doi:10.1074/jbc.m704364200)

B1: Prolactin, P01236 (parent)
chain: MNIKGSPWKGSLLLLLVSNLLLCQSVAPLPICPGGAARCQVTLRDLFDRAVVLSHYIHNLSSEMFSEFDKRYTHGRGFITKAINSCHTSSLATPEDKEQAQQMNQKDFLSLIVSILRSWNEPLYHLVTEVRGMQEAPEAILSKAVEIEEQTKRLLEGMELIVSQVHPETKENEIYPVWSGLPSLQMADEESRLSAYYNLLHCLRRDSHKIDNYLKLLKCRIIHNNNC

variants of: B1; conditions: Homo sapiens; pH 7.4; Thermal; CD; NaH2PO4 100mM; structure 1RW5; whole UniProt chain shown
Tick rule met if change of melting temperature, mutant - wild type (higher = more stable) is 9 °C or greater. Tick rule not met if change of melting temperature, mutant - wild type (higher = more stable) is less than 9 °C.

G157D    rule not met
G157V    rule met
G157L    rule met
G157R    rule not met
G157P    rule not met

**Q:** change of melting temperature, mutant - wild type (higher = more stable) >= 9 °C for G157Y ?
**A:** rule met

**Q:** change of melting temperature, mutant - wild type (higher = more stable) >= 9 °C for G157F ?
**A:** rule met

**Q:** change of melting temperature, mutant - wild type (higher = more stable) >= 9 °C for G157N ?
**A:** rule not met
